# Lookup of reported SIGNAL INTENSITY keyed by entry
- System Name: T1, biotin-labeled DsbA (UniProt P0AEG4 20-208, limits assumed, biotin-labeled)
- T1 sequence (looked up): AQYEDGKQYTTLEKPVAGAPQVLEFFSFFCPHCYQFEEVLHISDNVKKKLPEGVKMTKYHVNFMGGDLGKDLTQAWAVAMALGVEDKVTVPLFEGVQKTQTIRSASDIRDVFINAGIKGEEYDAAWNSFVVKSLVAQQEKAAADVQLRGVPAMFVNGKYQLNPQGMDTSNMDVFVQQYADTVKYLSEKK
- Procedure Summary: peptide microarray fluorescence (Cy5), peptide on the array, biotin-DsbA in solution
No end group written: not given here.
Reported Endpoint: SIGNAL INTENSITY

NDYQYKGQQCLDPKY-NH2 [NDYQYKGQQCLDPKY-NH2] ... 3620
DFWHGDTCKVTQFDQ-NH2 [DsbA_1_WT] ... 1750
VILGQCLKQ-NH2 [VILGQCLKQ-NH2] ... 965
YVYGMCWKDYTDTDK-NH2 [YVYGMCWKDYTDTDK-NH2] ... 2110
PSPWATCDF-NH2 [PSPWATCDF-NH2] ... 82
VIGQCLKN-NH2 [VIGQCLKN-NH2] ... 588
VIVGQCLKK-NH2 [VIVGQCLKK-NH2] ... 282
